B1: CPEB3 Ribozyme (parent)
chain: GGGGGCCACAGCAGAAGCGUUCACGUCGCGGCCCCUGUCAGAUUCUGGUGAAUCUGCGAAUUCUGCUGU

variants of: B1; experiment: self-cleavage, relative activity (ratio to wild type); higher = more cleavage; co-transcriptional
property label: self-cleavage
The response must contain the number and no unit.

Prompt: Could you tell me which self-cleavage is on file for GGGGGCCACAGCACAACCGUUCACGUCGCGGCCCCUGUCAGAUUCUGGUGAAUCUGCGAAUUCUGCUGU [G14C G17C] ?
Completion: 0.119

Prompt: Would you kindly share the measured self-cleavage for GGGGGUCACAGCAGAAGCGUUCACGUCGCGGCCCCUGUCAGAUUCUGGUGAAUCUGCGAAUUCUUCUGU [C6U G65U] ?
Completion: 0.719

Prompt: # input variant: GGGGGCCACAGAAGAAGCGUUCACGUCCCGGCCCCUGUCAGAUUCUGGUGAAUCUGCGAAUUCUGCUGU [C12A G28C] ; wanted: its self-cleavage
Completion: 0.164

Prompt: Consider the variant GGGGGCCACAGCAGAAGCGUUCACGUCGCGGACCCUGUCAGAUUCUGGUGAAUCUGCGGAUUCUGCUGU [C32A A59G] and give its measured self-cleavage.
Completion: 0.61

New cases:
Prompt: Looking for the measured self-cleavage of GGGGGCCACAGCAGAAGCGUUCAGGUCGCGGCCACUGUCAGAUUCUGGUGAAUCUGCGAAUUCUGCUGU [C24G C34A] , can you help?
Completion: 0.271

Prompt: Find the recorded self-cleavage belonging to GGGGACCACAGCAGAAGCGUUCACGUCCCGGCCCCUGUCAGAUUCUGGUGAAUCUGCGAAUUCUGCUGU [G5A G28C] and report it.
Completion: 0.124
